test system: Dual specificity mitogen-activated protein kinase kinase 6 (Homo sapiens, UniProt P52564)
Sequence (P52564 whole entry): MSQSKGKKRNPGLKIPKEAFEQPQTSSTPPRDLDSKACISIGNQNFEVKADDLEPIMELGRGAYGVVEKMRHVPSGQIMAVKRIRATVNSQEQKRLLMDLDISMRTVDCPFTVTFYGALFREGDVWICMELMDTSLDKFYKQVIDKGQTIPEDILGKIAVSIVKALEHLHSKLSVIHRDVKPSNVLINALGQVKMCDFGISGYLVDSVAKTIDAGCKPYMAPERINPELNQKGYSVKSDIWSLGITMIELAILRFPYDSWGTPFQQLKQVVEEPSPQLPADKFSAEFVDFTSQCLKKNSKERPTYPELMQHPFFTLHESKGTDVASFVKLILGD
measurement description: Inhibition of human MKK6 by ELISA
readout label: IC50

Data request: Provide measured IC50 on Dual specificity mitogen-activated protein kinase kinase 6 (Homo sapiens, UniProt P52564) for N#Cc1cnc2c(Cl)cc(NCc3cnc[nH]3)cc2c1Nc1ccc(F)c(Cl)c1 please.
Data returned: > 100 µM

###

measurement description: Inhibition of LPS-induced MEK phosphorylation in primary human monocytes by immunoblot analysis
Format: cell-based
readout label: pIC50
One number for each entry, as −log10 of the molar value.

Data request: Supply reported pIC50 belonging to this compound: N#Cc1cnc2c(Cl)cc(NCc3cnc[nH]3)cc2c1Nc1ccc(F)c(Cl)c1
Data returned: 6.30

###

Test system: Monocyte
measurement description: Inhibition of LPS-induced TNFalpha production in primary human monocytes
Assay type: functional, cell-based
readout label: pIC50
Give bare numbers, as −log10 of the molar value.

Data request: Supply reported pIC50 belonging to this compound: N#Cc1cnc2c(Cl)cc(NCc3cnc[nH]3)cc2c1Nc1ccc(F)c(Cl)c1
Data returned: 6.22

###

test system: Mitogen-activated protein kinase kinase kinase 8 (Homo sapiens, UniProt P41279)
Sequence (P41279 whole entry): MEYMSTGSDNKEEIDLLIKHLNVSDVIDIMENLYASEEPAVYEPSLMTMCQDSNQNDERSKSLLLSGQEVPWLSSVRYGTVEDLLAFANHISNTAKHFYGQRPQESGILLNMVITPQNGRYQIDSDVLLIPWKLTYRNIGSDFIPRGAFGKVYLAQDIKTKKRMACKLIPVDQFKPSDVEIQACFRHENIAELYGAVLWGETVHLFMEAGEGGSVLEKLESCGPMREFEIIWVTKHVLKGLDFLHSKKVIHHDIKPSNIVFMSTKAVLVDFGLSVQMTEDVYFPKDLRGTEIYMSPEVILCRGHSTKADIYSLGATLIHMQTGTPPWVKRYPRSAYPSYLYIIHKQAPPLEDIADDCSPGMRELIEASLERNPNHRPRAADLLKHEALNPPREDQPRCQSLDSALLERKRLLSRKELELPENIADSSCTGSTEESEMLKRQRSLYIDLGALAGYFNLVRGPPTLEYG
measurement description: Inhibition of human Tpl2 by ELISA
readout label: IC50 (nM)
One number for each entry, in nM.

[
  {
    "smiles data": "N#Cc1cnc2c(Cl)cc(NCc3cnc[nH]3)cc2c1Nc1ccc(F)c(Cl)c1",
    "reading unit": "nM",
    "IC50": 12
  }
]

Here's the next entry for you.
Data request: Supply reported IC50 belonging to this molecule: C[C@@H](Nc1cc2c(Nc3ccc(F)c(Cl)c3)c(C#N)cnc2cn1)c1ccccc1
Data returned: 16

###

test system: Proto-oncogene tyrosine-protein kinase Src (Homo sapiens)
Sequence (P12931 2-536 limits assumed): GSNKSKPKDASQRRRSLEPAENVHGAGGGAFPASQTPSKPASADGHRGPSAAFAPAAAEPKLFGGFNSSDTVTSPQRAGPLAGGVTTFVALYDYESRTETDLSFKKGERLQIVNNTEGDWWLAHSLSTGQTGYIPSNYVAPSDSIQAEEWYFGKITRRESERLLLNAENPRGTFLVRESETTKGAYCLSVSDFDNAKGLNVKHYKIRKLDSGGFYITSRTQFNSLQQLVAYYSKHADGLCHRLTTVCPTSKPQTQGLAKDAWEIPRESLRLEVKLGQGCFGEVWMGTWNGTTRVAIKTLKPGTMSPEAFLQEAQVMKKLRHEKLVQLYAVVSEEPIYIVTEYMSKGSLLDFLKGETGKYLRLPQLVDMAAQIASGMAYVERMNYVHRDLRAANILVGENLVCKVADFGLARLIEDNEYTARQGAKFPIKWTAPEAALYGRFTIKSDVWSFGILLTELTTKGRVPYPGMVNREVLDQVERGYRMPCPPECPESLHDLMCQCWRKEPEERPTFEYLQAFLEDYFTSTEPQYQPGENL
readout label: IC50

Data request: Supply reported IC50 belonging to this compound: N#Cc1cnc2c(Cl)cc(NCc3cnc[nH]3)cc2c1Nc1ccc(F)c(Cl)c1
Data returned: > 100 µM

###

test system: Stromelysin-1 (Homo sapiens)
Sequence (P08254 whole entry): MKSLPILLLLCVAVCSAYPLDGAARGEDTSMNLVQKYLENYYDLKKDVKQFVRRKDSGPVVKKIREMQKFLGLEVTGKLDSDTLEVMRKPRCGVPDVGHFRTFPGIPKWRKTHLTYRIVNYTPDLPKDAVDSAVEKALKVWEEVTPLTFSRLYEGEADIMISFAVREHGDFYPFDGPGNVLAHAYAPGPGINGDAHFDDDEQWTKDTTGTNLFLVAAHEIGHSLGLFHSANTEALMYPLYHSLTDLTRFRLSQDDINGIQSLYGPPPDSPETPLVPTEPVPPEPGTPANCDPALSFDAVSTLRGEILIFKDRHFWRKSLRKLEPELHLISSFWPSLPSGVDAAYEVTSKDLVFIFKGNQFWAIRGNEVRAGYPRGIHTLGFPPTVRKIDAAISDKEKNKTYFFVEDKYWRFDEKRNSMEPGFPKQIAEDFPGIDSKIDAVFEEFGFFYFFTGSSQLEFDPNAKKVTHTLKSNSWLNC
measurement description: Inhibition of IL-1-beta-stimulated MMP3 in human RA-FLS cells by immunoblot analysis
Type: cell-based
readout label: IC50 (nM)
One number for each entry, in nM.

Data request: Supply reported IC50 belonging to this compound: N#Cc1cnc2c(Cl)cc(NCc3cnc[nH]3)cc2c1Nc1ccc(F)c(Cl)c1
Data returned: 2300

###

test system: MAP kinase-activated protein kinase 2 (Homo sapiens, UniProt P49137)
Sequence (P49137 whole entry): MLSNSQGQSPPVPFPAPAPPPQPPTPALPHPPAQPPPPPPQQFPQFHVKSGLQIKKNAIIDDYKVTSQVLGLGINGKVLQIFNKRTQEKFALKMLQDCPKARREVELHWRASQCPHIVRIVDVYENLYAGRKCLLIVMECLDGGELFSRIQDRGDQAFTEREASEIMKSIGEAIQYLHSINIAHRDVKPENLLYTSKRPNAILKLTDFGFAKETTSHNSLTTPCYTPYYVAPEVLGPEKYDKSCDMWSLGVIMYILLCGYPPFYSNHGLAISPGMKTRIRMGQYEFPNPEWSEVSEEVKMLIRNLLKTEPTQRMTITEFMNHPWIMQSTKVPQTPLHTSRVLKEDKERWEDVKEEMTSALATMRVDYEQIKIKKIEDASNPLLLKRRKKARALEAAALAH
measurement description: Inhibition of human MK2 by scintiplate assay
readout label: IC50
Please report the result as a number followed by the unit.

Data request: Supply reported IC50 belonging to this molecule: N#Cc1cnc2c(Cl)cc(NCc3cnc[nH]3)cc2c1Nc1ccc(F)c(Cl)c1
Data returned: 48 µM

###

test system: Mitogen-activated protein kinase 14 (Homo sapiens, UniProt Q16539)
Sequence (Q16539 whole entry): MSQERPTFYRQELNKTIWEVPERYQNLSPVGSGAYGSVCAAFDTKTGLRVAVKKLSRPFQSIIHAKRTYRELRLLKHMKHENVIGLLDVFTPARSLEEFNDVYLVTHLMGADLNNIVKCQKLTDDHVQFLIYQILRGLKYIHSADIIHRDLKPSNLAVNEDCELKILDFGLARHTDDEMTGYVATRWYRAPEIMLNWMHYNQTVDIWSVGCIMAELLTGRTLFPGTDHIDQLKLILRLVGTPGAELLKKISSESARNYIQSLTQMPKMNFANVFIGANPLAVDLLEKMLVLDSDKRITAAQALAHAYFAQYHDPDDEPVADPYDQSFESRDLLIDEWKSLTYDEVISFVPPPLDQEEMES
measurement description: Inhibition of human p38alpha by ELISA
readout label: IC50

Data request: Supply reported IC50 belonging to this compound: N#Cc1cnc2c(Cl)cc(NCc3cnc[nH]3)cc2c1Nc1ccc(F)c(Cl)c1
Data returned: > 100 µM

###

test system: Dual specificity mitogen-activated protein kinase kinase 1 (Oryctolagus cuniculus, UniProt P29678)
Sequence (P29678 whole entry): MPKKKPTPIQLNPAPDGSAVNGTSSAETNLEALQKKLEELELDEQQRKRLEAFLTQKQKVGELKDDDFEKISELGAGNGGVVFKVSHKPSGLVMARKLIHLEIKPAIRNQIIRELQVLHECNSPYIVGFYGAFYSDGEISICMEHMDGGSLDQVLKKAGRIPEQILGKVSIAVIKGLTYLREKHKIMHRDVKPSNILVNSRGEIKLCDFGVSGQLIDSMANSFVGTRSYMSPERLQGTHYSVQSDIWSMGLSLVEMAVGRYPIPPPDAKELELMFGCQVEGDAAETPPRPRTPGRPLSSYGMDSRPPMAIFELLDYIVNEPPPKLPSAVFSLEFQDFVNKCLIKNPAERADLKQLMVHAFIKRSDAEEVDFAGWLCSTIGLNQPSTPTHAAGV
measurement description: Inhibition of rabbit MEK1 by ELISA
readout label: IC50

Data request: Supply reported IC50 belonging to this compound: N#Cc1cnc2c(Cl)cc(NCc3cnc[nH]3)cc2c1Nc1ccc(F)c(Cl)c1
Data returned: > 40 µM
